Assignment: determine reported log10 IC50 for the given compounds.
molecular target: GST-Xa-hAAK1 (Homo sapiens); construct: made in house; test: AAK1 Kinase Assay; assay type: biochemical; conditions: IC50 (nM), ATP 22 μM; 3 hours at room temperature; Caliper LabChip 3000
Sequence (Q2M2I8 whole entry): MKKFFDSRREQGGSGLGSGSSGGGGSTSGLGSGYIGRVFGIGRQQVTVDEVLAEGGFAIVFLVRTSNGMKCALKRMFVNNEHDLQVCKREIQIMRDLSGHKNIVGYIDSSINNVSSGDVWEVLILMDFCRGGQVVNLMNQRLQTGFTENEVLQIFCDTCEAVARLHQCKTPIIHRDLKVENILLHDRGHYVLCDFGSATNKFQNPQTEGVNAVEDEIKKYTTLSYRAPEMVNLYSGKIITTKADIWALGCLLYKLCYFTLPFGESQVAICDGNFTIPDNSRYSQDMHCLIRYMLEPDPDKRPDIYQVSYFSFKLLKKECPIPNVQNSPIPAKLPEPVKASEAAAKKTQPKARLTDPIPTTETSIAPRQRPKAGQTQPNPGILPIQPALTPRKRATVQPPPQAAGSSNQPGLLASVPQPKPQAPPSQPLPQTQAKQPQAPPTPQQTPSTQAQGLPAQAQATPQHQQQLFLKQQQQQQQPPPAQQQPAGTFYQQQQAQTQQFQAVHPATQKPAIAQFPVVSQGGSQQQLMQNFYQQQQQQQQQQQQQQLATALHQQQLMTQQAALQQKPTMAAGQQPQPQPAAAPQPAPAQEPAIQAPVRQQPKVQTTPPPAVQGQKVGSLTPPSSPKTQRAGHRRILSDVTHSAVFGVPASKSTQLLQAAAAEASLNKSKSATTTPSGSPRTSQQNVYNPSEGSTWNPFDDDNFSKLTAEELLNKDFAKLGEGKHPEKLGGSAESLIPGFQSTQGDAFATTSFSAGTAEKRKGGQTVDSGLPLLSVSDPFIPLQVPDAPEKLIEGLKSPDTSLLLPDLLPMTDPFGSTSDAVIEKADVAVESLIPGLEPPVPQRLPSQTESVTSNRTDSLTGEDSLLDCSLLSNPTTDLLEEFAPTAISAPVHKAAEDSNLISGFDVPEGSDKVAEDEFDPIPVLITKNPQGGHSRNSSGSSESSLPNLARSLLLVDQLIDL
Give log10 of IC50, with IC50 taken in nM.

> print(dat)
                                   compound  property.measured  measured
1  COc1cc(NC(=O)[C@H](N)CC(C)C)c(F)cc1-c1cnco1         log10 IC50      3.05

// each listed compound needs a value for log10 IC50
1. COc1cc(NC(=O)[C@H](N)CC2CCCCC2)ccc1-c1cnco1
2. COc1cc(NC(=O)C2CCCCN2C(C)C)ccc1-c1cnco1 (stereo not drawn)
3. COc1cc(NC(=O)[C@@H]2NCCC[C@@H]2C(C)C)ccc1-c1cnco1
4. CNC1(C(=O)Nc2ccc(-c3cnco3)c(OC)c2)CC1
5. COc1cc(NC(=O)C2NCCCC2C(F)(F)F)ccc1-c1cnco1 (single isomer, unassigned) [Example 91]
6. COc1cc(NC(=O)[C@H]2C[C@@H](F)CN2)ccc1-c1cnco1
7. COc1cc(NC(=O)CN2CCCC2=O)ccc1-c1cnco1
8. COc1cc(NC(=O)[C@H](N)CC(C)C)c(-c2nncs2)cc1-c1cnco1

(A)
2.98
2.56
0.90
3.64
2.62
3.04
3.38
2.56

// each listed compound needs a value for log10 IC50
1. COc1cc(NC(=O)[C@H](N)CC2CCC2)ccc1-c1cnco1
2. CC(C)C1CCCNC1C(=O)Nc1ccc(-c2ccncc2)cc1 (mixture of isomers)
3. COc1cc(NC(=O)[C@H](N)CC(C)C)ccc1-c1cnc[nH]1

(A)
[1.89, 1.52, 2.90]

// each listed compound needs a value for log10 IC50
1. CNc1ccc2ncc(-c3ccc(NC(=O)[C@H](N)CC(C)C)cc3OC)n2n1
2. COc1cc(NC(=O)[C@H](N)CC(C)C)ccc1-c1cnc2ccc(Cl)nn12
3. CC(C)C[C@@H](N)C(=O)Nc1ccc(-c2cnco2)c(N(C)C)c1
4. Cc1cc(NC(=O)[C@H](N)CC(C)C)ccc1-c1cnco1
5. COc1cc(NC(=O)[C@H](N)CC2CCC2)c(F)cc1-c1cnco1 (stereo in doubt)
6. COc1cc(NC(=O)[C@H](N)C2CCCC2)ccc1-c1cnco1
7. COc1cc(NC(=O)[C@H](N)CC(C)C)ccc1-c1ccncc1

(A)
1.95
2.64
2.93
2.39
2.88
1.72
1.80

###

molecular target: GST-Xa-hAAK1 (Homo sapiens); construct: made in house; test: AAK1 Kinase Assay; assay type: biochemical; conditions: IC50 (nM), ATP 22 μM; 3 hours at room temperature; Caliper LabChip 3000
Note to self: use Criterion met only for IC50 readings below 200 nM; a reading exactly at 200 nM still gets Criterion not met.

> print(dat)
                                   molecule         class.name
1  COc1cc(NC(=O)[C@@H]2CCCN2C(C)C)ccc1-c1cnco1  Criterion not met

(Q) Please determine if CNc1cc(-c2ccc(NC(=O)C(N)CC(C)C)cc2OC)ccn1 (stereo not drawn) is below 200 nM in terms of IC50.
(A) Criterion not met

(Q) Please determine if CC(C)C[C@@H](N)C(=O)Nc1ccc(-c2cnco2)c(OC(F)F)c1 is below 200 nM in terms of IC50.
(A) Criterion met

(Q) Please determine if COc1cc(NC(=O)[C@@H](CC(C)C)NCc2cnn(C)c2)ccc1-c1cnco1 is below 200 nM in terms of IC50.
(A) Criterion met

(Q) Please determine if CC(C)C[C@@H](N)C(=O)Nc1ccc(-c2ccncc2)cc1C(F)(F)F is below 200 nM in terms of IC50.
(A) Criterion not met

(Q) Please determine if COc1cc(NC(=O)C[C@@H](N)C(C)C)ccc1-c1cnco1 is below 200 nM in terms of IC50.
(A) Criterion met

(Q) Please determine if COc1cc(NC(=O)C2NCCC2C(C)C)ccc1-c1cnco1 (single isomer, unassigned) [Example 36] is below 200 nM in terms of IC50.
(A) Criterion met

(Q) Please determine if COc1cc(NC(=O)[C@H](N)C(C)C)c(F)cc1-c1cnco1 is below 200 nM in terms of IC50.
(A) Criterion not met

(Q) Please determine if CC[C@@H](N)C(=O)Nc1ccc(-c2cnco2)c(OC)c1 is below 200 nM in terms of IC50.
(A) Criterion not met
